All figures here come from patent US20260035382A1.

Target: SAE (Homo sapiens (Human))
Sequence (Q9UBT2 whole entry): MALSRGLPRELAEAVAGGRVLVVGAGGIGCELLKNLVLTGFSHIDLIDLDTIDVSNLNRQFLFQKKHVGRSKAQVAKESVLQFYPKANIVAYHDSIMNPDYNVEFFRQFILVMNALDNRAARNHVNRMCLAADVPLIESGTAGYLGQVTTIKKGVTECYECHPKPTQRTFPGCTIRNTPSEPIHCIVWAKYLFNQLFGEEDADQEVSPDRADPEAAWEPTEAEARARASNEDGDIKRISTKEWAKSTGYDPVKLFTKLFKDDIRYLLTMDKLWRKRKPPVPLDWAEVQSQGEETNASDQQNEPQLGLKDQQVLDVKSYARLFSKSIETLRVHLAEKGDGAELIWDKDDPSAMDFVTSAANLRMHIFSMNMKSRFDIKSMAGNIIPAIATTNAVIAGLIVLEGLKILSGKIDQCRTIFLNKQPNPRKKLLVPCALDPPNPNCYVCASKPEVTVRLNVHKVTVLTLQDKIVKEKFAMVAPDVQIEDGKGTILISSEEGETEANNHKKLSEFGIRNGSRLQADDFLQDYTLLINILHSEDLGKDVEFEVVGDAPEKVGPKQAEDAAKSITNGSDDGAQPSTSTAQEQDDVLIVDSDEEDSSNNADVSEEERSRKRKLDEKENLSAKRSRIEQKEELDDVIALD
Sequence (Q9UBE0 whole entry partner): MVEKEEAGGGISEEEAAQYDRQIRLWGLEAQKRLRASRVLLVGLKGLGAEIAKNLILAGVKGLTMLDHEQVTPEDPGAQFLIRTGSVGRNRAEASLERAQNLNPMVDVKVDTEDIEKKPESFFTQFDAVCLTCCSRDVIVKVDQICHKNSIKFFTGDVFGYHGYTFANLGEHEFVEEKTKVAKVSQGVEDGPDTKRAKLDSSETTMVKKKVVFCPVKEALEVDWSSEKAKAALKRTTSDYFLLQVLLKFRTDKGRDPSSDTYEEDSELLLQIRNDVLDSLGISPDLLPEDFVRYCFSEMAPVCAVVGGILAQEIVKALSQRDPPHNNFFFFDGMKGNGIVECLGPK
Assay: In vitro inhibitory activity assay against SAE (SUMO-2/3 immunofluorescence in HCT116 cells)
Assay type: cell-based
Conditions: 6 h incubation, class symbols, read-out: SUMO IF IC50
IC50 values for the molecules below.

>  <molecule>
NS(=O)(=O)OC[C@H]1C[C@@H](Nc2ncncc2C(=O)c2cc3c(s2)CCCC32NCCc3cc(Cl)c(Cl)cc32)C[C@@H]1O (stereo partly drawn)

>  <IC50>
0.05 to 0.2 µM

$$$$
>  <molecule>
NS(=O)(=O)OC[C@H]1C[C@@H](Nc2ncncc2C(=O)c2cc3c(s2)CCCC32NCCc3ccc(Cl)cc32)C[C@@H]1O (stereo partly drawn)

>  <IC50>
≤ 0.05 µM

$$$$
>  <molecule>
NS(=O)(=O)OC[C@H]1C[C@@H](Nc2ncncc2C(=O)c2cc3c(s2)CCC[C@]32NCCc3ncc(Cl)cc32)C[C@@H]1O

>  <IC50>
≤ 0.05 µM

$$$$
>  <molecule>
NS(=O)(=O)OC[C@H]1C[C@@H](Nc2ncncc2C(=O)c2cc3c(s2)CCC[C@]32NC(=O)Cc3ccc(Cl)cc32)C[C@@H]1O

>  <IC50>
> 0.2 µM

$$$$
>  <molecule>
CC(C)N1Cc2sc(C(=O)c3cncnc3N[C@@H]3C[C@H](COS(N)(=O)=O)[C@@H](O)C3)cc2[C@]2(C1)OCCc1ccc(Cl)cc12

>  <IC50>
≤ 0.05 µM

$$$$
>  <molecule>
Cc1cc2c(cc1Cl)C1(CCCc3sc(C(=O)c4cncnc4N[C@@H]4C[C@H](COS(N)(=O)=O)[C@@H](O)C4)cc31)NCC2 (stereo partly drawn)

>  <IC50>
0.05 to 0.2 µM

$$$$

---

Cmax for assorted compounds
Experiment: In vivo pharmacokinetic experiment, intravenous administration
Details: mouse, 2 mg/kg, CD-1 female mice, 2 mpk, plasma, read-out: Cmax
Description: CD-1 female mice aged 6 to 8 weeks were intravenously administered at a dose of 2 mg/kg. The mice were fasted for at least 12 h before the administration and given food after the administration, and they were given ad libitum access to water during the experiment. […] The plasma concentration was processed using a non-compartmental model of Phoenix WinNonlin™ version 8.3 (Certara) pharmacokinetic software, and the pharmacokinetic parameters were calculated using a linear-log trapezoidal method.

>  <smiles-input>
NS(=O)(=O)OC[C@H]1C[C@@H](Nc2ncncc2C(=O)c2cc3c(s2)CCC[C@]32NCCc3ccc(F)cc32)C[C@@H]1O

>  <unit-of-measure>
ng/mL

>  <Cmax>
597

$$$$
>  <smiles-input>
NS(=O)(=O)OC[C@H]1C[C@@H](Nc2ncncc2C(=O)c2cc3c(s2)COC[C@]32NCCc3ccc(Cl)cc32)C[C@@H]1O

>  <unit-of-measure>
ng/mL

>  <Cmax>
1150

$$$$
>  <smiles-input>
NS(=O)(=O)OC[C@H]1C[C@@H](Nc2ncncc2C(=O)c2cc3c(s2)CCC[C@]32NCCc3ccc(Cl)cc32)C[C@@H]1O

>  <unit-of-measure>
ng/mL

>  <Cmax>
798

$$$$
>  <smiles-input>
NS(=O)(=O)OC[C@H]1C[C@@H](Nc2ncncc2C(=O)c2cc3c(s2)CC[C@]32NCCc3ccc(Cl)cc32)C[C@@H]1O

>  <unit-of-measure>
ng/mL

>  <Cmax>
719

$$$$
